- Tested on: U2OS
- procedure-text: Incucyte cell viability with U2OS; note: unitless GR value; below 1 slowed growth and below 0 cell loss
- Assay type: toxicity, cell-based
- condition-notes: human, 18 h, 10 µM, compound concentration 10 uM, replicate number 2
endpoint-name: Growth Rate
Would you mind answering with just the numeric figure?

Here are 8 compounds together with their reported answers.
| compound | Growth Rate |
| --- | --- |
| N#Cc1c(SCc2csc(-c3ccc(Cl)cc3)n2)nc(N2CCCC2)c(C#N)c1-c1ccc(OCCO)cc1 | 0.93 |
| C=CC(=O)Nc1cccc(C)c1Nc1ncc2cc(-c3c(Cl)c(OC)cc(OC)c3Cl)ccc2n1 | 0.42 |
| Cc1nnc2ccc(-c3cccc(C(F)(F)F)c3)nn12 | 0.97 |
| C[C@@H]1COCCN1c1cc(=O)n2c(n1)N(Cc1cncc(Cl)c1)[C@H](C(F)(F)F)CC2 | 0.95 |
| O=C(O)c1ccc(-c2c[nH]c3ncc(-c4ccccc4)cc23)cc1C1CCCC1 | 0.92 |
| C=CC(=O)Nc1cc(-c2nn(C3CCC(N4CCN(C(C)=O)CC4)CC3)c3ncnc(N)c23)ccc1Oc1ccccc1 (stereo unspecified) | -0.48 |
| CC1(C)Cc2nc(C3CCCC3)c([C@@H](F)c3ccc(C(F)(F)F)cc3)c(C3CCCCC3)c2[C@@H](O)C1 | 0.82 |
| C[C@@H]1CC[C@@]2(OC1)O[C@H]1[C@@H](O)[C@H]3[C@@H]4CC[C@H]5C[C@@H](O[C@@H]6O[C@H](CO)[C@H](O[C@@H]7O[C@H](CO)C(O)[C@H](O[C@@H]8OC[C@@H](O)[C@H](O)[C@H]8O)[C@H]7O[C@@H]7O[C@H](CO)[C@H](O)[C@H](O[C@@H]8O[C@H](CO)[C@@H](O)[C@H](O)[C@H]8O)[C@H]7O)[C@H](O)[C@H]6O)[C@H](O)C[C@]5(C)[C@H]4CC[C@]3(C)[C@H]1[C@@H]2C (stereo partly specified) | 0.6 |

Growth Rate measured on "CC(=O)c1ccc2c(c1)/C(=C(/NC1CCN(C)CC1)c1ccc3c(c1)OCO3)C(=O)N2" = 0.13

Growth Rate measured on "Fc1ccc(Cl)cc1-c1nc(Nc2ccncc2)c2nccnc2n1" = 0.87

Growth Rate measured on "CC(C)(C#Cc1ccc(NC(=O)COc2ccccc2C(=O)c2ccccc2)c(Cl)c1)C(=O)O" = 0.81

// data source = ChEMBL document CHEMBL5303304
